assay: Cytotoxicity against human TZM-bl cells assessed as inhibition of cell viability by resazurin assay
conditionLabel: read-out: TC50 (the source's name)
outcomeMeasure: CC50

Some solved entries appear below for comparison.
structureSmiles | CC50
O=C(O)c1cccc(Cn2ccc3ccc(-c4ccc5ccn(Cc6ccc(C(F)(F)F)cc6)c5c4)cc32)c1 | > 50 µM
COc1ccc(Cn2ccc3cc(-c4ccc5c(ccn5Cc5cccc(C(=O)O)c5)c4)ccc32)cc1 | > 100 µM

Qu. May I ask what CC50 has been recorded for "O=C(O)c1cccc(Cn2ccc3ccc(-c4ccc5ccn(Cc6ccc(-c7ccccc7)cc6)c5c4)cc32)c1" ?
Ans. > 50 µM

Qu. May I ask what CC50 has been recorded for "COc1cccc(-c2ccc3ccn(Cc4cccc(C(=O)O)c4)c3c2)c1" ?
Ans. > 100 µM

Qu. May I ask what CC50 has been recorded for "CCOC(=O)c1cccc(Cn2ccc3ccc(-c4ccc5ccn(Cc6cccc(C(=O)O)c6)c5c4)cc32)c1" ?
Ans. > 50 µM

Data credit: ChEMBL document CHEMBL3286109
